assay: Cytotoxicity against human MIAPaCa2 cells assessed as cell growth inhibition after 48 hrs by MTT assay; format: functional, cell-based; settings: MIA PaCa-2, 48 h
OBSERVABLE: pIC50
Please express pIC50 as -log10 of the molar concentration.

Recorded pIC50, per entry:
COMPOUND STRUCTURE STRING: C=C(C)[C@@H]1CC[C@]2(C(=O)O)CC[C@]3(C)[C@H](CC[C@@H]4[C@@]5(C)CC[C@H](O)C(C)(C)[C@@H]5CC[C@]43C)[C@@H]12
pIC50: 5.15

COMPOUND STRUCTURE STRING: C=C(C)[C@@H]1CC[C@]2(C(=O)OCc3cn(-c4cccnc4Cl)nn3)CC[C@]3(C)[C@H](CC[C@@H]4[C@@]5(C)CC[C@H](O)C(C)(C)[C@@H]5CC[C@]43C)[C@@H]12
pIC50: 5.10

COMPOUND STRUCTURE STRING: C=C(C)[C@@H]1CC[C@]2(C(=O)OCc3cn(-c4ccc5c(c4)OCO5)nn3)CC[C@]3(C)[C@H](CC[C@@H]4[C@@]5(C)CC[C@H](O)C(C)(C)[C@@H]5CC[C@]43C)[C@@H]12
pIC50: 5.10

Request: Name the reported pIC50 value associated with the compound `C=C(C)[C@@H]1CC[C@]2(C(=O)OCc3cn(-c4cc(F)c(F)cc4Br)nn3)CC[C@]3(C)[C@H](CC[C@@H]4[C@@]5(C)CC[C@H](O)C(C)(C)[C@@H]5CC[C@]43C)[C@@H]12`
Response: 4.57

Request: Recorded pIC50 of `C=C(C)[C@@H]1CC[C@]2(C(=O)OCc3cn(-c4ccccc4OC)nn3)CC[C@]3(C)[C@H](CC[C@@H]4[C@@]5(C)CC[C@H](O)C(C)(C)[C@@H]5CC[C@]43C)[C@@H]12` , please.
Response: 5.05

Request: Sample `C=C(C)[C@@H]1CC[C@]2(C(=O)OCc3cn(-c4cccc(OC)c4)nn3)CC[C@]3(C)[C@H](CC[C@@H]4[C@@]5(C)CC[C@H](O)C(C)(C)[C@@H]5CC[C@]43C)[C@@H]12` — what was its pIC50?
Response: 4.66

Request: Which pIC50 is listed for `C=C(C)[C@@H]1CC[C@]2(C(=O)OCc3cn(-c4ccccc4I)nn3)CC[C@]3(C)[C@H](CC[C@@H]4[C@@]5(C)CC[C@H](O)C(C)(C)[C@@H]5CC[C@]43C)[C@@H]12` ?
Response: 5.10

Request: Look up pIC50: `C=C(C)[C@@H]1CC[C@]2(C(=O)OCc3cn(-c4ccccc4)nn3)CC[C@]3(C)[C@H](CC[C@@H]4[C@@]5(C)CC[C@H](O)C(C)(C)[C@@H]5CC[C@]43C)[C@@H]12`
Response: 4.74

Request: Need pIC50, item `C=C(C)[C@@H]1CC[C@]2(C(=O)OCc3cn(-c4ccc(OC)c(OC)c4)nn3)CC[C@]3(C)[C@H](CC[C@@H]4[C@@]5(C)CC[C@H](O)C(C)(C)[C@@H]5CC[C@]43C)[C@@H]12`
Response: 4.68
